System: UO-31
MEASUREMENT_DESCRIPTION: NCI tumour cell line growth inhibition, 48 h
Activity calls are given as the source filed them. No stated cut-off is given here; in the data, active = GI50 up to about 1.1 µM and inactive = higher.
Listing of entries alongside the reported GI50.
ASSAY_READOUT: GI50

>>> print(df.to_string())
                                    compound                value
 0          Cc1ccc(-c2nc3cc(Cl)ccc3[nH]2)cc1  > 100 µM (inactive)
 1  CCN1C(=O)/C(=C\Nc2ccccc2)S/C1=N/Nc1ncc(CC(=O)Nc2ccccc2C)s1   38.7 µM (inactive)
 2  CC1(C)/C(=N\O)C2(OS(=O)(=O)C(F)(F)F)CCC1C2 (configuration not stated)  > 100 µM (inactive)
 3  COc1ccc2nc3c(c(N)c2c1)C1CCC3C1(C)C (configuration not stated)   47.4 µM (inactive)
 4  O=C(O)CCC(NC(=O)c1ccc(CNc2nc3ccccc3nc2C(=O)O)cc1)C(=O)O (configuration not stated)  > 100 µM (inactive)
 5           CC(=O)O/N=C(Cl)/C(Cl)=N/OC(C)=O  > 100 µM (inactive)
 6  O=C1CSC(c2ccc([N+](=O)[O-])cc2)N1c1ccc(-n2c(-c3ccccc3)nc3ccccc3c2=O)cc1 (configuration not stated)   2.56 µM (inactive)
 7                    N/C(=N\O)N/N=C/c1cccs1   55.1 µM (inactive)
 8  Cc1n(CC(C)C)c2c([n+]1C)C(=O)c1ccccc1C2=O   1.29 µM (inactive)
 9  COc1cc(S(=O)(=O)Nc2ccc(-c3csc(/N=C\c4ccccc4O)n3)cc2)ccc1Cl     31 µM (inactive)
10                  CC12C(=O)CC(CC1=O)C2(C)C  > 100 µM (inactive)
11  O=c1c2sc(=S)n(-c3ccc(F)cc3)c2ncn1/N=C/c1ccc(F)cc1F   24.9 µM (inactive)

---

System: HCT-15
MEASUREMENT_DESCRIPTION: NCI tumour cell line growth inhibition, 48 h
Starred links: 1 amine or outer side, 2 acyl side, 3 side chain; linkers in the order of their positions; H or OH if unused. Non-standard residues stand in square brackets, D forms with d. Residues, ends and D or L forms follow the SMILES beside them. X4 = C[C@H](N[*:1])C(=O)C(C)(C)C(=O)[*:2]; Hmpa(2S,3S) = CC[C@H](C)[C@H](O)C(=O)O; NMeY = CN[C@@H](Cc1ccc(O)cc1)C(=O)O; NMeL = CN[C@@H](CC(C)C)C(=O)O; NMeV = CN[C@H](C(=O)O)C(C)C; βAla = NCCC(=O)O
Item-by-item account of GI50
ASSAY_READOUT: GI50

COMPOUND	TARGET_ENTITY	VALUE
COc1ccc(C2C(=O)C(Cl)N2Nc2nc(C)cc(O)n2)cc1OC (stereo not drawn)	HCT-15	20.2 µM
CN1C(=O)c2ccccc2NC(=O)C12O[C@@H]2c1cccc(O)c1 (stereo partly drawn)	HCT-15	> 100 µM
O=C(NC1CCCCCC1)C1C(=O)N(C2CCCCCC2)C(=O)/C1=N\O (stereo not drawn)	HCT-15	34.4 µM
O=P1(c2ccccc2)c2ccccc2CCc2ccccc21	HCT-15	68.9 µM
Cc1c(C)c2ccc(O)cc2[nH]c1=O	HCT-15	> 100 µM
C#CC1(O)CCC2[C@@H]3CCc4cc(Oc5nc(F)nc(-c6c7ccccc7c(SCC)n6CCC)n5)ccc4C3CC[C@@]21C (stereo partly drawn)	HCT-15	> 100 µM
CC(=O)O/N=C(Cl)/C(Cl)=N/OC(C)=O	HCT-15	> 100 µM
O=C(O)C(Cc1c[nH]c2ccccc12)N1C(=O)c2ccccc2C1=O (stereo not drawn)	HCT-15	> 100 µM
CC[C@H](C)[C@@H]1OC(=O)CCNC(=O)[C@@H](C)NC(=O)C(C)(C)C(=O)[C@H](C)NC(=O)[C@H](Cc2ccc(OC)cc2)N(C)C(=O)[C@H](C(C)C)N(C)C(=O)CNC(=O)[C@H](CC(C)C)N(C)C(=O)CNC1=O (cyclo(G[NMeL]G[NMeV][NMeY](Me)[X4][dA][βAla][Hmpa(2S,3S)]))	HCT-15	1.63 µM
O=C(O)CCC(=O)Nc1ccc2ccccc2c1	HCT-15	> 100 µM
COc1cc(Cn2c3ccccc3c3cc(C)c4c(c32)C=CC(C)(CCC=C(C)C)O4)cc2c1[nH]c1ccccc12 (stereo not drawn)	HCT-15	> 100 µM
CCOC(=O)c1cc2c(nc1N)-c1ncccc1CC2	HCT-15	32 µM
COc1cc2cc(C(=O)N3CC(CCl)c4c3cc(N)c3ccccc43)[nH]c2c(OC)c1OC (stereo not drawn)	HCT-15	< 0.01 µM
O=C(O)CCC(=O)c1ccc2sc3ccccc3c2c1	HCT-15	> 100 µM
COc1cccc(O)c1-c1cc(=O)c2c(O)c(OC)c(OC)c(OC)c2o1	HCT-15	18.5 µM
COC(=O)C1=CO[C@@H](OC2OC(CO)C(O)C(O)C2O)[C@H]2[C@@H](C)[C@@H](O)[C@@H](O)[C@@H]12 (stereo partly drawn)	HCT-15	> 100 µM
Cc1ccc(C(=O)N2CCCCC2)cc1/N=N/N(C)C	HCT-15	> 100 µM
O=C(O)CCC(NC(=O)c1ccc(CNc2nc3ccccc3nc2C(=O)O)cc1)C(=O)O (stereo not drawn)	HCT-15	> 100 µM

---

System: EKVX
MEASUREMENT_DESCRIPTION: NCI tumour cell line growth inhibition, 48 h
Activity calls are given as the source filed them. No stated cut-off is given here; in the data, active = GI50 up to about 1.1 µM and inactive = higher.
ASSAY_READOUT: GI50

>>> print(df.to_string())
                                   compound  target_entity                value
0         CCSc1nc(COC(=O)NC)c(COC(=O)NC)n1C           EKVX  > 100 µM (inactive)
1  CCOC(=O)C1C(=O)CC(=O)C2CCCCC21 (stereo not given)           EKVX  > 100 µM (inactive)
2  COC(=O)[C@@H](O)[C@](O)(CCC(C)C)C(=O)O[C@@H]1C(OC)=C[C@]23CCCN2CCc2cc4c(cc2[C@H]13)OCO4           EKVX   1.71 µM (inactive)
3  CC(=N/NC(=S)N1CCCCCC1)/C(C)=N\NC(=S)N1CCCCCC1           EKVX   3.85 µM (inactive)
4  CCN(CC)C(=O)C(C)n1cc(C)c(=O)[nH]c1=O (stereo not given)           EKVX  > 100 µM (inactive)
5  O=C1c2ccccc2-c2ccc(N(Cc3ccc(Br)cc3)Cc3ccc(Br)cc3)cc21           EKVX  > 100 µM (inactive)
6   NC1CC(=O)c2sc(I)cc21 (stereo not given)           EKVX  > 100 µM (inactive)
7  O=C(c1ccccc1)N1C(=S)N(c2ccc([N+](=O)[O-])cc2)C(=N/c2ccccc2)/C1=N\c1ccccc1           EKVX  > 100 µM (inactive)
8  CCOC(=O)CCC(NC(=O)c1ccc(NCc2ccc3nc(OC)c(OC)nc3c2)c2ccccc12)C(=O)OCC (stereo not given)           EKVX  > 100 µM (inactive)
9        Cn1c(S)nnc1-c1csc(-c2ccc(Cl)cc2)n1           EKVX   30.7 µM (inactive)

---

Test system: SK-MEL-2
MEASUREMENT_DESCRIPTION: NCI tumour cell line growth inhibition, 48 h
Active and inactive are the calls of the source. Rule as the data show it: active = GI50 up to about 1.1 µM and inactive = higher.
ASSAY_READOUT: GI50

                                    compound  target_entity                value
 0          O=C1C(Cl)=C(Cl)C(=O)N1c1ccccc1Cl       SK-MEL-2  > 100 µM (inactive)
 1       C/C(CC(=O)Nc1cccc(Cl)c1C)=N\N=C(N)N       SK-MEL-2  > 100 µM (inactive)
 2     O=C(CN1CCOCC1)CC(O)(C(F)(F)F)C(F)(F)F       SK-MEL-2   97.3 µM (inactive)
 3  CN1CCOC(C(NC(=O)c2ccccc2)c2ccccc2)C1=O (configuration not stated)       SK-MEL-2  > 100 µM (inactive)
 4  OCc1ccc2[n+](c1)CCC1c3ccccc3NC21 (configuration not stated)       SK-MEL-2  > 300 µM (inactive)
 5  O=C1N[C@@H]2c3c(Br)sc(Br)c3C(=O)[C@@H]2N1       SK-MEL-2   4.82 µM (inactive)
 6  COc1cc(OC)c2c(=O)cc(-c3ccc(OC)c(OC)c3OC)oc2c1       SK-MEL-2   60.1 µM (inactive)
 7                Cc1c(C)c2ccc(O)cc2[nH]c1=O       SK-MEL-2  > 100 µM (inactive)
 8  CCOC(=O)C(NC(=O)c1cccc(Cl)c1)(Nc1cccc(C)c1)C(F)(F)F (configuration not stated)       SK-MEL-2   16.3 µM (inactive)
 9        Nc1ccc2nc(Nc3ccc(Cl)c(Cl)c3)cnc2c1       SK-MEL-2     20 µM (inactive)
10  O=C1CSC(c2ccc([N+](=O)[O-])cc2)N1c1ccc(-n2c(-c3ccccc3)nc3ccccc3c2=O)cc1 (configuration not stated)       SK-MEL-2  > 100 µM (inactive)
11   CC1=NCCN=C(C)C1/N=N/c1ccc2[nH]c(C)nc2c1       SK-MEL-2   19.2 µM (inactive)
